Molecular target: PAK4 Kinase domain (PAK4 KD) (Homo sapiens, UniProt O96013)
Construct: Cloning, expression, and purification of recombinant PAK4 Kinase domain (PAK4 KD); His tag (pET28a(+)/pET24a(+), Ni-NTA purification) (N, cleaved yes); GST (pGST4.5, glutathione column) (N, cleaved yes)
Sequence (O96013 321-572 limits assumed): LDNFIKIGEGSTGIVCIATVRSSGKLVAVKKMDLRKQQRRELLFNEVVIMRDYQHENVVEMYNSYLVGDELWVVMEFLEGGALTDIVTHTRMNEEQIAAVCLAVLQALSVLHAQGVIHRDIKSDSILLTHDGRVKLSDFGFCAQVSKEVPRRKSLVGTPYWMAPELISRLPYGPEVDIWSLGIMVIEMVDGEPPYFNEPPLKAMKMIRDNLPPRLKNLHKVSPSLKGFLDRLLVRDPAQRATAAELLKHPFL
Test: PAK4 kinase domain enzymatic assay (PK/LDH-coupled, Ki)
Conditions: PAK4 Kinase Domain
assayEndpoint: Ki (nM)
The answer is to be given in nM; state only the numeric part.

compound	unitDescriptor	Ki
CCC(NC(=O)N1Cc2c(NC(=O)c3ccccc3)n[nH]c2C1(C)C)c1ccccc1 (centres unmarked)	nM	308
CN(C)C[C@@H](OC(=O)N1Cc2c(NC(=O)Cc3ccc(F)cc3)n[nH]c2C1(C)C)c1ccccc1	nM	23.3

input: Return reported Ki; argument: CN(C)C[C@@H](OC(=O)N1Cc2c(NC(=O)c3ccc(F)cc3)n[nH]c2C1(C)C)c1ccccn1
output: 78.6

input: Return reported Ki; argument: CC(=O)Nc1n[nH]c2c1CN(C(=O)O[C@H](CN(C)C)c1ccccc1)C2(C)C
output: 314

input: Return reported Ki; argument: CCC(=O)Nc1n[nH]c2c1CN(C(=O)O[C@H](CN(C)C)c1ccccc1)C2(C)C
output: 226

input: Return reported Ki; argument: CN(C)C[C@H](Cc1ccccc1)OC(=O)N1Cc2c(NC(=O)c3ccccc3)n[nH]c2C1(C)C
output: 106

input: Return reported Ki; argument: CN(C)CC(OC(=O)N1Cc2c(NC(=O)c3ccc(F)cc3)n[nH]c2C1(C)C)c1nccs1 (centres unmarked)
output: 335

input: Return reported Ki; argument: CC1(C)c2[nH]nc(NC(=O)c3ccc(F)cc3)c2CN1C(=O)N[C@H](CN)c1ccccc1
output: 20.8

input: Return reported Ki; argument: CN(C)[C@H](COC(=O)N1Cc2c(NC(=O)c3ccc(F)cc3)n[nH]c2C1(C)C)c1ccccc1
output: 955

input: Return reported Ki; argument: CN(C)C[C@@H](OC(=O)N1Cc2c(NC(=O)c3ccc(C(F)(F)F)cc3)n[nH]c2C1(C)C)c1ccccn1
output: 82.1

input: Return reported Ki; argument: CCc1cc(C(=O)Nc2n[nH]c3c2CN(C(=O)N[C@H](CN(C)C)c2ccccc2)C3(C)C)no1
output: 121

input: Return reported Ki; argument: COc1ccc(CC(=O)Nc2n[nH]c3c2CN(C(=O)O[C@H](CN(C)C)c2ccccc2)C3(C)C)cc1
output: 7.87

input: Return reported Ki; argument: C[C@@H](CN(C)C)OC(=O)N1Cc2c(NC(=O)c3ccc(F)cc3F)n[nH]c2C1(C)C
output: 564

input: Return reported Ki; argument: CC1(C)c2[nH]nc(NC(=O)c3ccccc3)c2CN1C(=O)N[C@H](CN)c1ccccc1
output: 19.3

input: Return reported Ki; argument: CN(C)C[C@H](Cc1ccccc1)OC(=O)N1Cc2c(NC(=O)c3ccccc3F)n[nH]c2C1(C)C
output: 858

input: Return reported Ki; argument: CNC[C@@H](OC(=O)N1Cc2c(NC(=O)c3ccc(F)cc3)n[nH]c2C1(C)C)c1ccccc1
output: 16.2

input: Return reported Ki; argument: CC1(C)c2[nH]nc(NC(=O)c3ccccc3)c2CN1C(=O)N[C@@H]1C[C@H]1c1ccccc1 (relative stereo)
output: 96
